system_under_test: T1, M11
T1 construct: also called PD1 mutant M11
method_notes: ELISA, 1 ug/ml
We label by threshold. Values of OD490 strictly beneath 0.7 are 1.0. Values of 0.7 and up are 0.0.

1. PD1-49A2 (antibody, V domains shown, scFv-phage in the screening ELISA; whole IgG in the other assays; also called Parent 49A2) VH: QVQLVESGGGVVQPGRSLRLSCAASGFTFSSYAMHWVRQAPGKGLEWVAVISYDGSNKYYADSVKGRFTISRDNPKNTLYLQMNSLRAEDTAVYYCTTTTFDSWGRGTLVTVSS VL: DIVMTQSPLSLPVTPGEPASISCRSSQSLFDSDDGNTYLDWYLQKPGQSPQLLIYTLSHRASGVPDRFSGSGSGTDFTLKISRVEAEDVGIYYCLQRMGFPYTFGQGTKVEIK | 1.0
2. PD1-41C9 (antibody, V domains shown, scFv-phage in the screening ELISA; whole IgG in the other assays) VH: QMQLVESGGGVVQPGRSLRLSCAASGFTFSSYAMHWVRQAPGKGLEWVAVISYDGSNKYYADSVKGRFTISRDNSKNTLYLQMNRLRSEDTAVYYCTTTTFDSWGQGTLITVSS VL: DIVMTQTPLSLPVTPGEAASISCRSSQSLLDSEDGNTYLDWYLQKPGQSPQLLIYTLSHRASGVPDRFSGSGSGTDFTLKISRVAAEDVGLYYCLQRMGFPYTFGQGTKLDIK | 0.0
3. PD1-52E8 (antibody, V domains shown, scFv-phage in the screening ELISA; whole IgG in the other assays) VH: QVQLVQSGGNLVQPGRSLRLSCAASGFTFDDYAMHWVRQAPGKGLEWVSGISWNSGTPGYADSVQGRFTISRDNAKNSLYLQMNSLRAEDTAVYYCARGHNYLDSSYYDYWGQGTLVTVSS VL: SYELTQPLSLSVAPGQTARITCSGDALSKEYSYWYQQKPGQAPVLVMYKDSERPSGIPERFSGSSSGTTVTLTISGVQAEDEADYYCQSVDSSDTSVVFGGGTKLTVL | 1.0
4. PD1-45D6(A/5B2) (antibody, V domains shown, scFv-phage in the screening ELISA; whole IgG in the other assays; also called 45D6-5B2; PD1 45D6 5B2) VH: QVQLVESGGGVVQPGRSLRLSCAASGFTFSFYAMHWVRQAPGKGLEWVAVISYDGNDKYYADSVKGRFTISRDNSKNTLYLQMNSLRAEDTAVYYCVPTTFEYWGQGTLVTVSS VL: DIVMTQTPLSPPVTPGEPASISCRSSQSLLDSDDGNTYLDWYLQKPGQSPQLLIYTLSHRASGVPDRFSGSGSGTDFTLEISRVEAEDVGVYYCMQRRDFPFTFGQGTKLDIK | 1.0
5. mPDL2-mFC (Fc fusion, mouse (prefix m on the sheet), UniProt Q9WUL5 20-221, looked up, mFC fusion) ligand fused to Fc: LFTVTAPKEVYTVDVGSSVSLECDFDRRECTELEGIRASLQKVENDTSLQSERATLLEEQLPLGKALFHIPSVQVRDSGQYRCLVICGAAWDYKYLTVKVKASYMRIDTRILEVPGTGEVQLTCQARGYPLAEVSWQNVSVPANTSHIRTPEGLYQVTSVLRLKPQPSRNFSCMFWNAHMKELTSAIIDPLSRMEPKVPRTW | 0.0
6. PD1-49A2(A/2B9) (antibody, V domains shown, scFv-phage in the screening ELISA; whole IgG in the other assays; also called 49A2-2B9; 49A2 (2B9)) VH: QVQLVESGGGVVQPGRSLRLSCAASGFTFLRYAMHWVRQAPGKGLEWVAVISYDGRYKYYADSVKGRFTISRDNSKNTLYLQMNSLRAEDTAVYYCTTTTFDSWGQGTLVTVSS VL: DIVMTQTPLSLPVTPGEAASISCRSSQSLLDSEDGNTYLDWYLQKPGQSPQLLIYTLSHRASGVPDRFSGSGSGTDFTLEISRVEAEDVGVYYCMQRRDFPFTFGQGTKVDIK | 1.0
